Biological target: human TRPM8 receptor (Homo sapiens (Human))
Sequence (Q7Z2W7 whole entry): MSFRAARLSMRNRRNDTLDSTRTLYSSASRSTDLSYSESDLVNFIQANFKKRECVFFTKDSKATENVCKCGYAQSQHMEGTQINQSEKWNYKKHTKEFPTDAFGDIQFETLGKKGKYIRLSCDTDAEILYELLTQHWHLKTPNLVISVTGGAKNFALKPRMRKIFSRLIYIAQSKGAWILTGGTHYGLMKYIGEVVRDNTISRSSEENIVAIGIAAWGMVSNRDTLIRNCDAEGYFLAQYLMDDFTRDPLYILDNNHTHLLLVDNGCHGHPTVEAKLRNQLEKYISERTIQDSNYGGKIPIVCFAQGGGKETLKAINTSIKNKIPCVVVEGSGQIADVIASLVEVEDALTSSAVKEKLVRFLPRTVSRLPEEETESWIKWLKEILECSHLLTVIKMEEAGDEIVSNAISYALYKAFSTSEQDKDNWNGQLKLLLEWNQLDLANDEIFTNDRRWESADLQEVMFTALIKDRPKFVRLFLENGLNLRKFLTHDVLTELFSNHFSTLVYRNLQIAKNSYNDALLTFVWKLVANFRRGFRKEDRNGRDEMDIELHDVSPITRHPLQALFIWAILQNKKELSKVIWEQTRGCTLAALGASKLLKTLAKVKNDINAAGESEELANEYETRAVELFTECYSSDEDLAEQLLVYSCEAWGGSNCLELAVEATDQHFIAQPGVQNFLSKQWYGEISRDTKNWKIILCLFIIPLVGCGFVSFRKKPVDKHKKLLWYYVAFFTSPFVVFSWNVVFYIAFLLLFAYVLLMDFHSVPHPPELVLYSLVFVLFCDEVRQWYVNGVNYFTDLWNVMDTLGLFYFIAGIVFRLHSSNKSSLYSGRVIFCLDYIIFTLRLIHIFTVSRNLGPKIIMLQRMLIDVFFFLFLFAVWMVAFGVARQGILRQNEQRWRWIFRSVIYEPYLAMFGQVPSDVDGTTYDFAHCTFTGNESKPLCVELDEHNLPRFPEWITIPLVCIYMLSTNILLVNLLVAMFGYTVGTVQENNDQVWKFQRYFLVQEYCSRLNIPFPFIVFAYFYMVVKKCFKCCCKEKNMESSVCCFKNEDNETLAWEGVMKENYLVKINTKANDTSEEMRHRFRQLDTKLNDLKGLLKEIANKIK
Assay: Assay on TRPM8 modulators (Ca2+-sensitive dye, HEK293-TRPM8 test cells, EC50 determination)
Type: cell-based
Details: Table C, structure type 3; assay according to reference example 3
Source text: As a test cell system the human TRPM8 DNA (see plasmid pInd-M8 above) was used to prepare a stable transfixed HEK293 cell line. […] The agonisation or antagonisation of the receptor can be quantified by means of a Ca^2+-sensitive dye (e.g. FURA, Fluo-4, etc.). […] The test substances are used in triplicate in concentrations of between 0.1 and 200 μm in the assay. Normally the compounds are kept ready in DMSO solutions and diluted for the assay to a maximum DMSO concentration of 2%.
Answer each item with its documented EC50.
# number only, unit µM dropped from output

Incoming: Name the reported EC50 value associated with the compound O=C(COc1ccc2c(c1)OCO2)N(c1ccccc1)C1CCCCC1 [Compound 3-44]
Outgoing: 1

Incoming: Repeat for the following compound: CC(C)N(Cc1ccccc1)C(=O)/C=C/c1ccc2c(c1)OCO2 [Compound 3-13]
Outgoing: 3.9

Incoming: Repeat for the following compound: CCN(C(=O)/C=C/c1ccc2c(c1)OCO2)C1CCCCC1 [Compound 3-4]
Outgoing: 0.8

Incoming: Repeat for the following compound: O=C(COc1ccccc1)N(c1nccs1)C1CCCCC1 [Compound 3-46]
Outgoing: 3

Incoming: Repeat for the following compound: O=C(CCc1ccc2c(c1)OCO2)N(c1ccccc1)c1ccccc1 [Compound 3-43]
Outgoing: 6.8

Incoming: Repeat for the following compound: O=C(/C=C/c1ccc2c(c1)OCO2)N(Cc1ccccc1)c1ccccn1 [Compound 3-12]
Outgoing: 0.7

Incoming: Repeat for the following compound: COc1cccc(/C=C/C(=O)N(c2ccccc2)C2CCCCC2)c1OC [Compound 3-39]
Outgoing: 2.6

Incoming: Repeat for the following compound: CC(C)N(C(=O)/C=C/c1ccc2c(c1)OCO2)c1ccccc1 [Compound 3-8]
Outgoing: 0.6

Incoming: Repeat for the following compound: Cc1ccc(/C=C/C(=O)N(c2ccccc2)C(C)C)cc1 [Compound 3-36]
Outgoing: 1.8

Incoming: Repeat for the following compound: COc1cccc(/C=C/C(=O)N(c2ccccc2)c2ccccc2)c1OC [Compound 3-40]
Outgoing: 5.9

Incoming: Repeat for the following compound: COc1ccc(/C=C/C(=O)N(Cc2ccccc2)c2ccccn2)cc1 [Compound 3-24]
Outgoing: 2.2

Incoming: Repeat for the following compound: Cc1ccc(/C=C/C(=O)N(C2CCCCC2)C2CCCCC2)cc1 [Compound 3-33]
Outgoing: 2.1

Incoming: Repeat for the following compound: Cc1ccccc1/C=C/C(=O)N(c1ccccn1)C1CCCCC1 [Compound 3-30]
Outgoing: 0.4

Incoming: Repeat for the following compound: CCCN(C(=O)/C=C/c1ccc(OC)cc1)c1ccccc1 [Compound 3-21]
Outgoing: 1.7
